- Subject of test: PfCSP full length (Plasmodium falciparum (isolate NF54), UniProt P19597)
- Sequence (P19597 20-375): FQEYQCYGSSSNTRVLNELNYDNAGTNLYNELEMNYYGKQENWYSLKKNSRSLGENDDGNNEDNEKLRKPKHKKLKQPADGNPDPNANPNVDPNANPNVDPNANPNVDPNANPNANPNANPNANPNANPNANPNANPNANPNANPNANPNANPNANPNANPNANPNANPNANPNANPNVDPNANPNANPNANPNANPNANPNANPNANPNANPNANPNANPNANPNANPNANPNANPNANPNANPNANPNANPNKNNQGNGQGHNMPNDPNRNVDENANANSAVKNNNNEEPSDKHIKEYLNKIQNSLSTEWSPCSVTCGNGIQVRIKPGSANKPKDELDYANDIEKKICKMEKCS
- Measurement protocol: ELISA AUC
Given measured binding score, output 1.0 if it is greater than or equal to 2 and 0.0 if not.

| Binder | Label class |
| --- | --- |
| Ky15.3 (antibody, V domains shown, peptides N-terminally acetylated and C-terminally amidated) VH: QVQLVESGGGVVQPGRSLRLSCVASGFTFSNAGMHWVRQTPGKGLEWVAIIWYDGSIKYYGESVKGRFTISRDNSKNTLYLEMSSLRAEDTAVYFCVRAYSGSLYDKYGMDVWGQGTTVIVSS VL: DIQMTQSPSTLSASVGDRVTISCRASQTISTWLAWFQQKPGKAPKLLIYAASSLQSGVPSRFSGSGSGTDFTLTISNLQPDDFATYYCQQFNSYWTFGQGTKVEIK | 1.0 |
| CL-512871 (antibody, V domains shown, peptides N-terminally acetylated and C-terminally amidated) VH: QVLLVESGGGVVQPGRSLRLSCAASGFTFSNYGMHWVRQAPGKGLEWVALIRYDGINKFYADSVKGRFTISRDNSENTLYMQINSLRAEDTAMYYCAKAYNTSSDYYYGMDVWGQGTTVTVSS VL: DIQMTQSPSTLSASVGDRVTITCRASQSISTWLAWYQQKPGKAPKLLIYKASRLESGVPSRFSGSGSGTEFTLTISSLQPDDLATYYCQQFNSYWTFGQGTKVEIR | 1.0 |
| CL-510487 (antibody, V domains shown, peptides N-terminally acetylated and C-terminally amidated) VH: QVQLEESGGGVVQPGRSLRLSCTATGFTFSNYGMHWVRQAPGRGLEWVGVIWYDGSNKFYVDSVKGRFTISRDNSKNTLYLQMNSLRAEDTAVYYCARDGGYYGSGSYWWFDSWGQGTLVTVSS VL: DIQMTQSPSTLSASVGDRVTITCRASQSISSWLAWYQQKPGKAPKLLIYKASSLERGVPSRFSGSGSGTEFTLTISSLQPDDFATYYCQQYNRYCSFGQGTKLEIK | 0.0 |
| Ky230 (antibody, V domains shown, peptides N-terminally acetylated and C-terminally amidated) VH: QVQLVESGGGVVQPGRSLRLSCAASGFTFSDYGMHWVRQAPGKGLEWVAIIWHDGSNKYYVDSVKGRFTISRDNSKNTLYLQMNSLRAEDTAVYYCARAASSFGSGFDYWGQGTLVTVSS VL: DVVMTQSPLSLPVTLGQPASIFCRSSQSLVYSDGNTYLNWFQRRPGQSPRRLIYKVSDRDSGVPDRFSGSGSGTDFTLQISRVEAEDVGVYYCMQGTHWPPTFGQGTKVEIK | 1.0 |
| CL-514174 (antibody, V domains shown, peptides N-terminally acetylated and C-terminally amidated) VH: QVQLVESGGGVVQPGRSLRLSCVASGFTFSGSGMHWVRQSPGKGLEWVAIIWYDGSNKFYADSVQGRFTISRDNSKNTLYLQMNSLRVEDTGVYYCARAYLSGNYGDKYGMDVWGQGTTVTVSS VL: DIQMTQSPSTLSASVGDRVTITCRASQSISSWLAWFQQKPGKAPKLLIYKASSLESGVPSRFSGSGSGTEFTLTINSLQPDDFATYFCQQYNYYWTFGQGTKVEIK | 1.0 |
| CL-531271 (antibody, V domains shown, peptides N-terminally acetylated and C-terminally amidated) VH: QVQLVESGGGEVQPGRSLRLSCAASGFTFSNYGMHWVRQAPGKGLEWVALIWYDGNNKFYADSVNGRFTISRDNSNNTLYLQMNSLRAEDTGVYYCARSFYYVSGNFFDYWGQGTLVTVSS VL: DIPMTQSPSSVSASVGDRVTITCRASQGISTWLAWYQQKPGKAPKFLIYAASSLQSGVPSRFSGSGSGTDFTLTIYSLQPEDFATYYCQQGNSFPWTFGQGTKVEIK | 1.0 |
| CL-513701 (antibody, V domains shown, peptides N-terminally acetylated and C-terminally amidated) VH: QVQLVESGGGVVQTGRSLRLSCTASGFIFSNYGMYWVRQAPGKGLEWVALIWYDGSNKYYVDSVKGRFTISRDNSKNTLYLQMNSLRAEDTAVYYCARAGKYSGSGSYLDSWGQGTLVTVSS VL: DIQMTQSPSSVSASVGDRVTITCRASQGISSWLAWYQQKPGKAPKLLIYTASSLQSGVPSRFSGSGSGTDFTLTISSLQPDDFATYFCQQYSRYWTFGQGTKVEIK | 1.0 |
| CL-512296 (antibody, V domains shown, peptides N-terminally acetylated and C-terminally amidated) VH: QVQLVESGGGVVQPGRSLRLSCAASGFTFSNYGMHWVRQAPGKGLEWVAVIWYDGSKKFYADSVMGRFTISRDNSKNTLVLQMNSLGAEDTAVYYCARDRGYSGYVFDYWGQGTLVTVSS VL: QSALTQPASVSGSPGQSIAISCTGTSSDVGGYNFVSWYRHHPGKAPKLMIYDVSNRPSGVSNRFSGSKSGNTASLTISGLQAEDEADYYCCSYAGSCSVFGGGTKLTVL | 0.0 |
| CL-460506 (antibody, V domains shown, peptides N-terminally acetylated and C-terminally amidated) VH: QVQLVESGGGVVQPGRSLRLSCAASGFTFSNYGMHWVRQAPGKGLEWMAIIWYDGSNKYYADSVKGRFTISRDNSMNTLYLQMNSLRPEDTALYYCARAFYYGSGTLDYWGQGTLVTVSS VL: EIVLTQSPATLSVSPGERATLSCRASQSVSSHLAWYQQKFGQAPRLLIYGASNRATGIPARFSGSGSGTEFTLTISILQSEDFAVYYCQQYNNWFTFGPGTKIDIK | 1.0 |
